- SYSTEM UNDER TEST: GASC1 (KDM4C) (Homo sapiens)
- Construct: Full length
- Sequence (Q9H3R0 whole entry): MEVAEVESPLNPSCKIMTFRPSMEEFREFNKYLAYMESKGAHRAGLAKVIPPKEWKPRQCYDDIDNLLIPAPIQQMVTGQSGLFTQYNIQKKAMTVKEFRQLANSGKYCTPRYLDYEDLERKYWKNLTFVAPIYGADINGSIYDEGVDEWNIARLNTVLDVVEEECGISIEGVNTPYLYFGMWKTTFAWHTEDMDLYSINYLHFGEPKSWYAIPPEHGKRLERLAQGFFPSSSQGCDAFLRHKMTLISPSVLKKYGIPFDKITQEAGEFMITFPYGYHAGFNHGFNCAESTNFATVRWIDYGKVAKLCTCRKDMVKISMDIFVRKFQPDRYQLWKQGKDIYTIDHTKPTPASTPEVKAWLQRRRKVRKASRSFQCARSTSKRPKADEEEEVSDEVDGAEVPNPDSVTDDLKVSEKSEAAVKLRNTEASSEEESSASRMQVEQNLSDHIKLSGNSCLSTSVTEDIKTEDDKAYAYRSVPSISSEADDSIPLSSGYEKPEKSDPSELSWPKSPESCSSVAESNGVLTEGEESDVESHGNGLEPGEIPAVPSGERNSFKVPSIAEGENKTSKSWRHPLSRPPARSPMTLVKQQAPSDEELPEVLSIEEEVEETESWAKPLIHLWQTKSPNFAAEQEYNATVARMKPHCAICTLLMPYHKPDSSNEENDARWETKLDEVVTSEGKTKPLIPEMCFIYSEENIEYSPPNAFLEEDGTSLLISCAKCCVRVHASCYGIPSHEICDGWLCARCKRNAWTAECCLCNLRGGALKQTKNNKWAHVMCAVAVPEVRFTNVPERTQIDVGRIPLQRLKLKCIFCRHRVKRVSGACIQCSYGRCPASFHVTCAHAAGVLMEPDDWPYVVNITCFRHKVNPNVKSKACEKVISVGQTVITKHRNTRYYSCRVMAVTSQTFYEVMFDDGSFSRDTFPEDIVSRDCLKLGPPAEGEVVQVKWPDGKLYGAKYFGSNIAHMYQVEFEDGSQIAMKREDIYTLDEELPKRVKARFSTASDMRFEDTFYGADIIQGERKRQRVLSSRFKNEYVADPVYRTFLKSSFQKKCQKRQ
- TEST NAME: Immunofluorescence assay in U2OS cells transfected with pCMVHA JMJD2C (H3K9me3 mark)
- CONDITIONS: 20 hours
ENDPOINT LABEL: IC50

Some molecules with known IC50 results, for comparison:
>>> print(df.to_string())
                                   molecule  endpoint_label  meas_value
0  CCOC(=O)c1ccccc1OC(=O)c1ccnc(CNCCCCN(CC)CC)c1 [drawing 330]            IC50  1 to 50 µM
1  O=C(O)c1ccnc(CN[C@@H]2CCN(CCCc3ccccc3)C2)c1 [drawing 315]            IC50     > 50 µM
2  CN(CCCNCc1cc(C(=O)O)ccn1)Cc1ccccc1F [drawing 322]            IC50     > 50 µM
3  O=C(O)c1ccnc(CNCCCNCCCN2CCCC2)c1 [drawing 310]            IC50     > 50 µM
4  CCN(CC)CCCCNCc1cc(C(=O)O)ccn1 [drawing 327]            IC50  1 to 50 µM

The molecule listed as CN(C)CCN(C)Cc1cc(C(=O)O)ccn1 [drawing 301] has a reported IC50 of > 50 µM

The molecule listed as CN(CCC(N)=O)C(=O)CNCc1cc(C(=O)O)ccn1 [drawing 311] has a reported IC50 of > 50 µM
